Values compiled from the Kinase Knowledgebase extract (Sharma et al. 2016).

Each entry below carries its reported IC50.
- TARGET: MAPK14 (human)
- PROTOCOL: Inhibition of MAPK14 by Human Whole Blood Assay
- MEASUREMENT CONTEXT: blood cells

>  <COMPOUND>
COCCN(C(=O)c1ccc2ccccc2c1)c1ccnc(NC(C)C)n1

>  <IC50>
≤ 1 µM

$$$$
>  <COMPOUND>
CCc1cccc(C(=O)N(CC)c2ccnc(N[C@@H](C)c3ccccc3)n2)c1

>  <IC50>
< 1 µM

$$$$
>  <COMPOUND>
C[C@H](Nc1cc(N(Cc2ccc(F)cc2)C(=O)c2ccccc2)ccn1)c1ccccc1

>  <IC50>
≤ 1 µM

$$$$
>  <COMPOUND>
C[C@H](Nc1cc(N(Cc2ccccc2)C(=O)c2ccc3ccccc3c2)ccn1)c1ccccc1

>  <IC50>
≤ 1 µM

$$$$
>  <COMPOUND>
O=C(c1ccc2c(c1)CCO2)N(CC1CCNCC1)c1ccnc(NC2CCCC2)n1

>  <IC50>
< 1 µM

$$$$
>  <COMPOUND>
CC(=O)N(Cc1ccc(F)cc1)c1ccnc(N[C@@H](C)c2ccccc2)c1

>  <IC50>
≤ 1 µM

$$$$
>  <COMPOUND>
C[C@H](Nc1nccc(N(CC2CCNCC2)C(=O)c2ccc3c(c2)CCC3)n1)c1ccccc1

>  <IC50>
< 1 µM

$$$$
>  <COMPOUND>
O=C(c1ccc2ccccc2c1)N(Cc1ccc(F)cc1)c1ccnc(N[C@H]2CCc3ccccc32)c1

>  <IC50>
≤ 1 µM

$$$$
>  <COMPOUND>
CC(C)Nc1cc(N(Cc2ccc(F)cc2)C(=O)c2ccc3ccccc3c2)ccn1

>  <IC50>
≤ 1 µM

$$$$
>  <COMPOUND>
C[C@H](Nc1nccc(N(CC2CCNCC2)C(=O)c2ccc3c(c2)CCCC3)n1)c1ccccc1

>  <IC50>
< 1 µM

$$$$
>  <COMPOUND>
CC(C)C(C)Nc1nccc(N(CC2CCNCC2)C(=O)c2ccc3c(c2)CCO3)n1 (centres undefined)

>  <IC50>
< 1 µM

$$$$
>  <COMPOUND>
CCCN(C(=O)c1ccc2ccccc2c1)c1ccnc(NC(C)C)n1

>  <IC50>
≤ 1 µM

$$$$
>  <COMPOUND>
O=C(c1ccc2ccccc2c1)N(CC1CC1)c1ccnc(NC2CCC(O)CC2)n1 (centres undefined)

>  <IC50>
< 1 µM

$$$$
>  <COMPOUND>
COC(=O)c1ccc(CNc2cc(N(Cc3ccc(F)cc3)C(=O)c3ccc4ccccc4c3)ccn2)cc1

>  <IC50>
≤ 1 µM

$$$$
>  <COMPOUND>
C[C@H](Nc1nccc(N(C(=O)c2ccc3ccccc3c2)C2CCNCC2)n1)c1ccccc1

>  <IC50>
≤ 1 µM

$$$$
>  <COMPOUND>
O=C(c1ccc2ccccc2c1)N(Cc1ccc(F)cc1)c1ccnc(NC2CCCCC2)c1

>  <IC50>
≤ 1 µM

$$$$
>  <COMPOUND>
CC(C)Nc1nccc(N(C(=O)c2ccc3ccccc3c2)C(C)C)n1

>  <IC50>
≤ 1 µM

$$$$
>  <COMPOUND>
O=C(c1ccc2ccccc2c1)N(CC1CCNCC1)c1ccnc(NC2CCOCC2)n1

>  <IC50>
< 1 µM

$$$$
>  <COMPOUND>
C[C@H](Nc1cc(N(Cc2ccc(F)cc2)C(=O)c2ccc3ccccc3c2)ccn1)c1ccc2ccccc2c1

>  <IC50>
≤ 1 µM

$$$$
>  <COMPOUND>
COC(=O)CN1CCC(CN(C(=O)c2ccc3c(c2)CCO3)c2ccnc(NC(C)C)n2)CC1

>  <IC50>
< 1 µM

$$$$
>  <COMPOUND>
C[C@H](Nc1nccc(N(CC2CCN(C(N)=O)CC2)C(=O)c2ccc3c(c2)CCO3)n1)c1ccccc1

>  <IC50>
< 1 µM

$$$$
>  <COMPOUND>
CCN(C(=O)c1scc2c1CCCC2)c1ccnc(N[C@@H](C)c2ccccc2)n1

>  <IC50>
< 1 µM

$$$$
>  <COMPOUND>
CNc1nccc(N(CC2CCNCC2)C(=O)c2ccc3ccccc3c2)n1

>  <IC50>
< 1 µM

$$$$
>  <COMPOUND>
CCC(Nc1cc(N(Cc2ccc(F)cc2)C(=O)c2ccc3ccccc3c2)ccn1)c1ccccc1 (centres undefined)

>  <IC50>
≤ 1 µM

$$$$
>  <COMPOUND>
CCN(C(=O)c1cc(C)ccc1F)c1ccnc(N[C@@H](C)c2ccccc2)n1

>  <IC50>
< 1 µM

$$$$
>  <COMPOUND>
COCC(C)Nc1nccc(N(CCCCN)C(=O)c2ccc3c(c2)CCO3)n1 (centres undefined)

>  <IC50>
< 1 µM

$$$$
>  <COMPOUND>
CC(C)Nc1nccc(N(CCCCN)C(=O)c2ccc3c(c2)CCO3)n1

>  <IC50>
< 1 µM

$$$$
>  <COMPOUND>
C[C@H](Nc1cc(N(Cc2ccc(F)cc2)C(=O)c2ccc3ccccc3c2)ncn1)c1ccccc1

>  <IC50>
≤ 1 µM

$$$$
>  <COMPOUND>
C[C@H](Nc1nccc(N(Cc2ccc(F)cc2)C(=O)c2ccc3ccccc3c2)n1)c1ccccc1

>  <IC50>
≤ 1 µM

$$$$
>  <COMPOUND>
C[C@H](Nc1cc(N(Cc2ccc(F)cc2)S(=O)(=O)c2ccc3ccccc3c2)ccn1)c1ccccc1

>  <IC50>
≤ 1 µM

$$$$
>  <COMPOUND>
O=C(c1ccc2ccccc2c1)N(Cc1ccc(F)cc1)c1ccnc(NC(c2ccccc2)c2ccccc2)c1

>  <IC50>
≤ 1 µM

$$$$
>  <COMPOUND>
COCCN(C(=O)c1ccc2ccccc2c1)c1ccnc(N[C@@H](C)c2ccccc2)n1

>  <IC50>
≤ 1 µM

$$$$
>  <COMPOUND>
C[C@H](Nc1nccc(N(C)C(=O)c2ccc3ccccc3c2)n1)c1ccccc1

>  <IC50>
≤ 1 µM

$$$$
>  <COMPOUND>
Nc1cc(N(Cc2ccc(F)cc2)C(=O)c2ccc3ccccc3c2)ccn1

>  <IC50>
≤ 1 µM

$$$$
>  <COMPOUND>
C[C@H](Nc1nccc(N(CC2CC2)C(=O)c2ccc3ccccc3c2)n1)c1ccccc1

>  <IC50>
< 1 µM

$$$$
>  <COMPOUND>
C[C@H](Nc1nccc(N(CC2CCNC2)C(=O)c2ccc3c(c2)CCO3)n1)c1ccccc1 (some centres undefined)

>  <IC50>
< 1 µM

$$$$
>  <COMPOUND>
CCCN(C(=O)c1ccc2ccccc2c1)c1ccnc(N[C@@H](C)c2ccccc2)n1

>  <IC50>
≤ 1 µM

$$$$
>  <COMPOUND>
C[C@H](Nc1nccc(N(CCCCN)C(=O)c2ccc3c(c2)CCO3)n1)c1ccccc1

>  <IC50>
< 1 µM

$$$$
>  <COMPOUND>
C[C@H](Nc1nccc(N(CC2CCNCC2)C(=O)c2ccc3ccccc3c2)n1)c1ccccc1

>  <IC50>
< 1 µM

$$$$
